System: LXRa:RXRa (NR concentration 270 nM, RXRa partner concentration 90 nM)
Experiment: PBM binding z-score (relative to random genomic background probes); higher = stronger binding; sequences stand for … in GC…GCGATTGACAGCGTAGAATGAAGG
measured.endpoint: PBM binding z-score

{"chain": "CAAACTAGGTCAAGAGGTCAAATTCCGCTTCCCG", "assay.result": 6.59}
{"chain": "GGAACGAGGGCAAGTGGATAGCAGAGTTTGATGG", "assay.result": 0.618}
{"chain": "AGAATGAGGTTCTTAAGATCAGGGAATTGCGGTC", "assay.result": -0.575}
{"chain": "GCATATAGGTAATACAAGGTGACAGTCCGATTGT", "assay.result": 1.5}
{"chain": "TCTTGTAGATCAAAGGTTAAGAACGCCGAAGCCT", "assay.result": 2.28}
{"chain": "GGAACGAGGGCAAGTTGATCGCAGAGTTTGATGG", "assay.result": 0.257}
{"chain": "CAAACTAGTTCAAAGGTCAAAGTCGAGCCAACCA", "assay.result": 6.94}
{"chain": "CCTCGGAGGACATAAGGTCAGAGCTGTCCGCTTT", "assay.result": 2.6}
{"chain": "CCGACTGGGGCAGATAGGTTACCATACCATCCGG", "assay.result": -0.25}
{"chain": "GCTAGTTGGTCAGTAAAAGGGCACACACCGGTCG", "assay.result": 0.257}
{"chain": "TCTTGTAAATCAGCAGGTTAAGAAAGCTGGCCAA", "assay.result": 0.519}
{"chain": "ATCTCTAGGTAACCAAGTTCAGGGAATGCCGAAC", "assay.result": 0.821}

---

PBM binding z-score: recorded values
Tested on: THRa homodimer (NR concentration 90 nM)
Assay: PBM binding z-score (relative to random genomic background probes); higher = stronger binding; sequences stand for … in GC…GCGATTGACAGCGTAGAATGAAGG
measured.endpoint: PBM binding z-score

{"chain": "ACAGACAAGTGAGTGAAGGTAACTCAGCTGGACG", "measured.endpoint": "PBM binding z-score", "assay.result": -0.435}
{"chain": "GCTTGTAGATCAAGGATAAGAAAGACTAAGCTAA", "measured.endpoint": "PBM binding z-score", "assay.result": -0.696}
{"chain": "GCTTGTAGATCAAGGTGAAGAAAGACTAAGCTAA", "measured.endpoint": "PBM binding z-score", "assay.result": 0.0567}
{"chain": "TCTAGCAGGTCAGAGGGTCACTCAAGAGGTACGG", "measured.endpoint": "PBM binding z-score", "assay.result": 0.408}
{"chain": "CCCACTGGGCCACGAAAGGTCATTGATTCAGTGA", "measured.endpoint": "PBM binding z-score", "assay.result": 1.09}
{"chain": "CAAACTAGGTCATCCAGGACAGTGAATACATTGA", "measured.endpoint": "PBM binding z-score", "assay.result": 2.38}
{"chain": "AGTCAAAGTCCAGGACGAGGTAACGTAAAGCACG", "measured.endpoint": "PBM binding z-score", "assay.result": 1.14}
{"chain": "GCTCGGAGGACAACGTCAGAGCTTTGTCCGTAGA", "measured.endpoint": "PBM binding z-score", "assay.result": -0.468}
{"chain": "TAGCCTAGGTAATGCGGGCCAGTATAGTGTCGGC", "measured.endpoint": "PBM binding z-score", "assay.result": -0.74}
{"chain": "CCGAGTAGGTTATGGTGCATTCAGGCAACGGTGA", "measured.endpoint": "PBM binding z-score", "assay.result": 0.468}
{"chain": "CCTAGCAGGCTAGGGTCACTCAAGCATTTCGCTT", "measured.endpoint": "PBM binding z-score", "assay.result": 1.81}
{"chain": "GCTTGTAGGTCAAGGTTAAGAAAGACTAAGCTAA", "measured.endpoint": "PBM binding z-score", "assay.result": 0.735}
{"chain": "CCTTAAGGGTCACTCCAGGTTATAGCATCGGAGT", "measured.endpoint": "PBM binding z-score", "assay.result": 0.592}
{"chain": "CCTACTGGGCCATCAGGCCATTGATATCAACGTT", "measured.endpoint": "PBM binding z-score", "assay.result": 0.656}
{"chain": "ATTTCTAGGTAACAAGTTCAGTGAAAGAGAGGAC", "measured.endpoint": "PBM binding z-score", "assay.result": 1.35}
{"chain": "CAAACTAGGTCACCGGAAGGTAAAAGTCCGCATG", "measured.endpoint": "PBM binding z-score", "assay.result": 1.84}
{"chain": "GCGACTGTGGCATCAGCAGGTTACCATAACTTAA", "measured.endpoint": "PBM binding z-score", "assay.result": 0.0891}
{"chain": "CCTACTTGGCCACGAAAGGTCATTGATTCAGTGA", "measured.endpoint": "PBM binding z-score", "assay.result": 1.3}
{"chain": "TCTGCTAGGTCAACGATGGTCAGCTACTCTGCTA", "measured.endpoint": "PBM binding z-score", "assay.result": 0.776}
{"chain": "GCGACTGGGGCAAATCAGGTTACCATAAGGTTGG", "measured.endpoint": "PBM binding z-score", "assay.result": 0.742}
{"chain": "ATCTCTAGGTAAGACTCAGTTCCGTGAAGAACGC", "measured.endpoint": "PBM binding z-score", "assay.result": 0.766}
{"chain": "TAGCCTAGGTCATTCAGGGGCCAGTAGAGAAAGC", "measured.endpoint": "PBM binding z-score", "assay.result": 0.688}
{"chain": "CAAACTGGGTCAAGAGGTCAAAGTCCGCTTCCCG", "measured.endpoint": "PBM binding z-score", "assay.result": 2.13}
{"chain": "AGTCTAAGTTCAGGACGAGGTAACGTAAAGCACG", "measured.endpoint": "PBM binding z-score", "assay.result": 1.99}
{"chain": "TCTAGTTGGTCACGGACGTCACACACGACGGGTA", "measured.endpoint": "PBM binding z-score", "assay.result": -0.0119}
{"chain": "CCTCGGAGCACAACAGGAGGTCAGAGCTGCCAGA", "measured.endpoint": "PBM binding z-score", "assay.result": 0.301}

---

System: LXRa:RXRa (NR concentration 270 nM, RXRa partner concentration 90 nM)
Experiment: PBM binding z-score (relative to random genomic background probes); higher = stronger binding; sequences stand for … in GC…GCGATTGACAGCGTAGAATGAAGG
Is PBM binding z-score at least 3? Then Met. If not, Not met.

{"chain": "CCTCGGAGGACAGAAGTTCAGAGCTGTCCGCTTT", "group": "Not met"}
{"chain": "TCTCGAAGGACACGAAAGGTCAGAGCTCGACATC", "group": "Met"}
{"chain": "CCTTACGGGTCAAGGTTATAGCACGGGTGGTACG", "group": "Met"}
{"chain": "CCTAGCAGGCCAAGGTCACTCAAGCATTTCGCTT", "group": "Not met"}
{"chain": "GCGACTGGGGCAATGCAGGTTACCATAAGGTTGG", "group": "Not met"}
{"chain": "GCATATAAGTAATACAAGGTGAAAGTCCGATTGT", "group": "Not met"}
{"chain": "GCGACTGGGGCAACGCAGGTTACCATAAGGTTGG", "group": "Not met"}
{"chain": "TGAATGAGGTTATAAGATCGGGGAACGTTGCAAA", "group": "Not met"}
{"chain": "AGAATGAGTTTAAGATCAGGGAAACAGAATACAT", "group": "Not met"}
{"chain": "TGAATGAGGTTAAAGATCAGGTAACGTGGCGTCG", "group": "Not met"}
{"chain": "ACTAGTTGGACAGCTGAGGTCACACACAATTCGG", "group": "Not met"}

---

PBM binding z-score: recorded values
Tested on: RARb homodimer (NR concentration 270 nM)
Experiment: PBM binding z-score (relative to random genomic background probes); higher = stronger binding; sequences stand for … in GC…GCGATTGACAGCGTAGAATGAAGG

{"chain": "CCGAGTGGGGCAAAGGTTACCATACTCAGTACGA", "assayed.target": "RARb homodimer (NR concentration 270 nM)", "PBM binding z-score": 2.45}
{"chain": "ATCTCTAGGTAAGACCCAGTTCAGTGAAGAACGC", "assayed.target": "RARb homodimer (NR concentration 270 nM)", "PBM binding z-score": 0.62}
{"chain": "GCTGCTAGGTCAGGTTGTTCAGCTAACGGGTACG", "assayed.target": "RARb homodimer (NR concentration 270 nM)", "PBM binding z-score": 2.56}
{"chain": "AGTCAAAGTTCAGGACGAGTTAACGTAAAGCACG", "assayed.target": "RARb homodimer (NR concentration 270 nM)", "PBM binding z-score": 3.1}
{"chain": "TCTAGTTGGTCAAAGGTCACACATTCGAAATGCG", "assayed.target": "RARb homodimer (NR concentration 270 nM)", "PBM binding z-score": 5.15}
{"chain": "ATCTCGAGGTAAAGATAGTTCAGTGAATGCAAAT", "assayed.target": "RARb homodimer (NR concentration 270 nM)", "PBM binding z-score": 0.904}
{"chain": "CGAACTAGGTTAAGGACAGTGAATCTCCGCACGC", "assayed.target": "RARb homodimer (NR concentration 270 nM)", "PBM binding z-score": 1.1}
{"chain": "CCTAATGGGCCATTCAGAGGTCATTGATCATATG", "assayed.target": "RARb homodimer (NR concentration 270 nM)", "PBM binding z-score": 4.03}
{"chain": "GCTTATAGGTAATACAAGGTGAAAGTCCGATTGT", "assayed.target": "RARb homodimer (NR concentration 270 nM)", "PBM binding z-score": 1.05}
{"chain": "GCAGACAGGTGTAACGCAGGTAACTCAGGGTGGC", "assayed.target": "RARb homodimer (NR concentration 270 nM)", "PBM binding z-score": -0.771}
{"chain": "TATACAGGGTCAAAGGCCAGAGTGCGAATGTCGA", "assayed.target": "RARb homodimer (NR concentration 270 nM)", "PBM binding z-score": 3.58}
{"chain": "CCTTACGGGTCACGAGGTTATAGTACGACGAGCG", "assayed.target": "RARb homodimer (NR concentration 270 nM)", "PBM binding z-score": 3.95}
{"chain": "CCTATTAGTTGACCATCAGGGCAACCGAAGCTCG", "assayed.target": "RARb homodimer (NR concentration 270 nM)", "PBM binding z-score": 1.35}
{"chain": "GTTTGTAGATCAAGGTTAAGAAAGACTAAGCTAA", "assayed.target": "RARb homodimer (NR concentration 270 nM)", "PBM binding z-score": 0.79}
{"chain": "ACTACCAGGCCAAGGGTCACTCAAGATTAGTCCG", "assayed.target": "RARb homodimer (NR concentration 270 nM)", "PBM binding z-score": 4.07}
{"chain": "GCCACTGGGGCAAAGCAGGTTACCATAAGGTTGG", "assayed.target": "RARb homodimer (NR concentration 270 nM)", "PBM binding z-score": 1.08}
{"chain": "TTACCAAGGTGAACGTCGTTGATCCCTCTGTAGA", "assayed.target": "RARb homodimer (NR concentration 270 nM)", "PBM binding z-score": 0.909}
{"chain": "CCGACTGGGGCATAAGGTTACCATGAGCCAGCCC", "assayed.target": "RARb homodimer (NR concentration 270 nM)", "PBM binding z-score": 1.89}
{"chain": "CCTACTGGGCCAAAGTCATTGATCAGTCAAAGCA", "assayed.target": "RARb homodimer (NR concentration 270 nM)", "PBM binding z-score": -0.0618}
{"chain": "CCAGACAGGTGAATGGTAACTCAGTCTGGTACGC", "assayed.target": "RARb homodimer (NR concentration 270 nM)", "PBM binding z-score": -0.113}
{"chain": "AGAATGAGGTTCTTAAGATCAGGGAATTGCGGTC", "assayed.target": "RARb homodimer (NR concentration 270 nM)", "PBM binding z-score": -0.377}
{"chain": "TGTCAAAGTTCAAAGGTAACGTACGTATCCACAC", "assayed.target": "RARb homodimer (NR concentration 270 nM)", "PBM binding z-score": 3.77}
{"chain": "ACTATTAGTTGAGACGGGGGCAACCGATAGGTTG", "assayed.target": "RARb homodimer (NR concentration 270 nM)", "PBM binding z-score": 1.92}
{"chain": "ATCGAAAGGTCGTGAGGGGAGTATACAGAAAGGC", "assayed.target": "RARb homodimer (NR concentration 270 nM)", "PBM binding z-score": 2.78}
{"chain": "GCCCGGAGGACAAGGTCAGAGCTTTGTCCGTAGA", "assayed.target": "RARb homodimer (NR concentration 270 nM)", "PBM binding z-score": 3.19}
{"chain": "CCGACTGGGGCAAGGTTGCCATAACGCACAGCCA", "assayed.target": "RARb homodimer (NR concentration 270 nM)", "PBM binding z-score": 0.376}

All values here come from the supplement of paper PMC6555819.
